assay: AUC(0 to infinity) in Wistar Han rat at 5 mg/kg, id measured upto 24 hrs by LC-MS/MS analysis; assay type: ADME, organism-based; design: dose 5 mg/kg, time <=24; conditions: in vivo
recorded_endpoint: AUC(0-inf) (nM·h)

[[record]]
line_notation = "COc1ccc(C[C@@H]2NC(=O)[C@H]([C@@H](C)O)NC(=O)[C@@H]3[C@@H]4CCN3C(=O)[C@@H]3Cc5cn(c6ccc(F)cc56)Cc5cn(nn5)-c5cc(cc(c5)CSCCC(=O)N[C@@H](CN)C(=O)N[C@H](C)C(=O)N[C@@H](Cc5cccc(c5)C/C=C/CO4)C(=O)N3)CSCCNC(=O)[C@]3(C)CCCN3C2=O)cc1"
recorded_endpoint = "AUC(0-inf)"
measurement = 21.5

[[record]]
line_notation = "COc1ccc(C[C@@H]2NC(=O)[C@H]([C@@H](C)O)NC(=O)[C@@H]3[C@@H]4CCN3C(=O)[C@@H]3Cc5cn(c6ccc(F)cc56)Cc5cn(nn5)-c5cc(cc(c5)CSCCC(=O)N[C@@H](CNC(=O)CCOCCOCC[N+](C)(C)C)C(=O)N[C@H](C)C(=O)N[C@@H](Cc5cccc(c5)C/C=C/CO4)C(=O)N3)CSCCNC(=O)[C@]3(C)CCCN3C2=O)cc1"
recorded_endpoint = "AUC(0-inf)"
measurement = 274

[[record]]
line_notation = "COc1ccc(C[C@@H]2NC(=O)[C@H]([C@@H](C)O)NC(=O)[C@@H]3[C@@H]4CCN3C(=O)[C@@H]3Cc5cn(c6ccc(F)cc56)Cc5cn(nn5)-c5cc(cc(c5)CSCCC(=O)N[C@@H](CNC(=O)CCOCCOCCN)C(=O)N[C@H](C)C(=O)N[C@@H](Cc5cccc(c5)C/C=C/CO4)C(=O)N3)CSCCNC(=O)[C@]3(C)CCCN3C2=O)cc1"
recorded_endpoint = "AUC(0-inf)"
measurement = 68.3

[[record]]
line_notation = "COc1ccc(C[C@@H]2NC(=O)[C@H]([C@@H](C)O)NC(=O)[C@@H]3[C@@H]4CCN3C(=O)[C@@H]3Cc5cn(c6ccc(F)cc56)Cc5cn(nn5)-c5cc(cc(c5)CSCCC(=O)N[C@@H](C)C(=O)N[C@H](CNC(=O)CCOCCOCC[N+](C)(C)C)C(=O)N[C@@H](Cc5cccc(c5)C/C=C/CO4)C(=O)N3)CSCCNC(=O)[C@]3(C)CCCN3C2=O)cc1"
recorded_endpoint = "AUC(0-inf)"
measurement = 497

